test system: G12 astrocytoma cells; assay: MTT assay, chemosensitivity of G12 astrocytoma control and knockdown cells; format: cell-based; settings: 48 h, G12 shAxl9, 48 h, MTT

{"columns": ["MOLECULE", "TARGET_DESC", "IC50, nM"],
 "data": [
  ["Cn1nnc2c(C(N)=O)ncn2c1=O [Temozolomide, temozolomide]", "G12 astrocytoma cells", 1800]
]}

* * *

// reported pIC50 per item
test system: A549 Human NSCLC Cell Lines; assay: Relative cell numbers of A549 cells (wild type, shControl, Axl/Mer knockdown) after 48 hours of drug; assay type: cell-based; settings: Homo sapiens, A549, 48 h, A549 shAxl9-D3 (Axl knockdown), 48 hours, relative cell number
pIC50: −log10 of the molar value.

{"columns": ["COMPOUND", "pIC50"],
 "data": [
  ["COc1cc([C@@H]2c3cc4c(cc3[C@@H](O[C@@H]3O[C@@H]5CO[C@@H](C)O[C@H]5[C@H](O)[C@H]3O)[C@H]3COC(=O)[C@H]23)OCO4)cc(OC)c1O [VP-16, etoposide]", 6.00],
  ["COc1cccc2c1C(=O)c1c(O)c3c(c(O)c1C2=O)C[C@@](O)(C(=O)CO)C[C@@H]3O[C@H]1C[C@H](N)[C@H](O)[C@H](C)O1 [DOXO, doxorubicin]", 7.89]
]}

These measurements were taken from patent US20120230991A1.
